- test_target: Proteinase K (Parengyodontium album)
- Construct: purchased Roche
- Sequence (P06873 106-384): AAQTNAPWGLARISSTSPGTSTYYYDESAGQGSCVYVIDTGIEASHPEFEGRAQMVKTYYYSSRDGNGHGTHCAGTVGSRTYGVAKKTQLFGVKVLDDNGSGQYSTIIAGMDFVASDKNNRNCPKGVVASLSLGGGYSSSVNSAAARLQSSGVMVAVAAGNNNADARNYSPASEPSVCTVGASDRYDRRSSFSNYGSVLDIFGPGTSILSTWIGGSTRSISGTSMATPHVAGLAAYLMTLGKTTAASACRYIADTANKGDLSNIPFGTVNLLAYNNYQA
- assay_name: Proteinase K inhibition, fluorogenic substrate assay (Suc-Ala-Ala-Pro-Phe-AMC)
- Assay type: biochemical, Tritirachium album
- test_context: Proteinase K; inhibitor concentration 0.152416 nM; 40 min pre-incubation
experimental_endpoint: Mean (RFU/s)
Answer with a number only, understood to be in RFU/s.

{"compound": "C/C=C1\\NC(=O)[C@@H](NC(=O)[C@@H](NC(=O)[C@H](C)NC(=O)CCC)[C@@H](C)O)[C@@H](C)OC(=O)[C@H](C(C)C)NC(=O)[C@H](Cc2ccc(O)cc2)N(C)C(=O)[C@H](Cc2ccccc2)N2C(=O)[C@H](CC[C@H]2O)NC1=O [Molassamide, molassamide]", "numeric_value": 6.463}

Shift focus to the following entry.
What value of Mean (RFU/s) has been recorded for this entry: CC=C1NC(=O)[C@@H](NC(=O)[C@@H](NC(=O)[C@@H]2CCCN2C(=O)CCC)[C@@H](C)O)[C@@H](C)OC(=O)[C@H](C(C)C)NC(=O)[C@H](Cc2ccc(O)cc2)N(C)C(=O)[C@H](Cc2ccccc2)N2C(=O)[C@H](CC[C@H]2O)NC1=O [Rivulariapeptolide 988, rivulariapeptolide 988]
6.104

====

Record type: pIC50 measurement. Applies to: Elastase (Sus scrofa)
Expect pIC50 as a plain number equal to -log10 of the molar concentration.

# example entries with known answers
{"molecule": "C/C=C1\\NC(=O)[C@@H](NC(=O)[C@@H](NC(=O)[C@H](C)NC(=O)CCC)[C@@H](C)O)[C@@H](C)OC(=O)[C@H](C(C)C)NC(=O)[C@H](Cc2ccc(O)c(Br)c2)N(C)C(=O)[C@H](Cc2ccccc2)N2C(=O)[C@H](CC[C@H]2O)NC1=O [Molassamide B, molassamide B]", "test_target": "Elastase (Sus scrofa)", "pIC50": 7.93}
{"molecule": "CC=C1NC(=O)[C@@H](NC(=O)[C@@H](NC(=O)[C@@H]2CCCN2C(=O)CCC)[C@@H](C)OC(=O)C2CCCN2C(=O)CCC)[C@@H](C)OC(=O)[C@H](C(C)C)NC(=O)[C@H](Cc2ccc(O)cc2)N(C)C(=O)[C@H](CC(C)C)N2C(=O)[C@H](CC[C@H]2O)NC1=O (stereo partly drawn) [Rivulariapeptolide 1121, rivulariapeptolide 1121]", "test_target": "Elastase (Sus scrofa)", "pIC50": 7.88}

Lab note: need pIC50 for C/C=C1\NC(=O)[C@@H](NC(=O)[C@@H](NC(=O)[C@H](C)NC(=O)CCC)[C@@H](C)O)[C@@H](C)OC(=O)[C@H](C(C)C)NC(=O)[C@H](Cc2ccc(O)cc2)N(C)C(=O)[C@H](Cc2ccccc2)N2C(=O)[C@H](CC[C@H]2O)NC1=O [Molassamide, molassamide] on Elastase (Sus scrofa), anyone have it?
7.43

====

- test_target: Proteinase K (Parengyodontium album)
- Construct: purchased Roche
- assay_name: Proteinase K inhibition, fluorogenic substrate assay (Suc-Ala-Ala-Pro-Phe-AMC)
- Assay type: biochemical, Tritirachium album
- test_context: Proteinase K; inhibitor concentration 12.3457 nM; 40 min pre-incubation
experimental_endpoint: Mean (RFU/s)
Answer with a number only, understood to be in RFU/s.

# example entries with known answers
{"compound": "CCCC(=O)N1CCCC1C(=O)NC(C(=O)NC1C(=O)NC(CC(C)C)C(=O)NC2CCC(O)N(C2=O)C(Cc2ccccc2)C(=O)N(C)C(Cc2ccc(O)cc2)C(=O)NC(C(C)C)C(=O)OC1C)C(C)OC(=O)C1CCCN1C(=O)CCC (stereo not drawn) [Rivulariapeptolide 1185, rivulariapeptolide 1185]", "measurement_unit": "RFU/s", "numeric_value": 5.621}
{"compound": "C/C=C1\\NC(=O)[C@@H](NC(=O)[C@@H](NC(=O)[C@H](C)NC(=O)CCC)[C@@H](C)O)[C@@H](C)OC(=O)[C@H](C(C)C)NC(=O)[C@H](Cc2ccc(O)c(Br)c2)N(C)C(=O)[C@H](Cc2ccccc2)N2C(=O)[C@H](CC[C@H]2O)NC1=O [Molassamide B, molassamide B]", "measurement_unit": "RFU/s", "numeric_value": 1.43}
{"compound": "CC=C1NC(=O)[C@@H](NC(=O)[C@@H](NC(=O)[C@@H]2CCCN2C(=O)CCC)[C@@H](C)OC(=O)C2CCCN2C(=O)CCC)[C@@H](C)OC(=O)[C@H](C(C)C)NC(=O)[C@H](Cc2ccc(O)cc2)N(C)C(=O)[C@H](Cc2ccccc2)N2C(=O)[C@H](CC[C@H]2O)NC1=O (stereo partly drawn) [Rivulariapeptolide 1155, rivulariapeptolide 1155]", "measurement_unit": "RFU/s", "numeric_value": 5.497}
{"compound": "CC=C1NC(=O)[C@@H](NC(=O)[C@@H](NC(=O)[C@@H]2CCCN2C(=O)CCC)[C@@H](C)O)[C@@H](C)OC(=O)[C@H](C(C)C)NC(=O)[C@H](Cc2ccc(O)cc2)N(C)C(=O)[C@H](Cc2ccccc2)N2C(=O)[C@H](CC[C@H]2O)NC1=O [Rivulariapeptolide 988, rivulariapeptolide 988]", "measurement_unit": "RFU/s", "numeric_value": 5.64}
{"compound": "CC=C1NC(=O)[C@@H](NC(=O)[C@@H](NC(=O)[C@@H]2CCCN2C(=O)CCC)[C@@H](C)OC(=O)C2CCCN2C(=O)CCC)[C@@H](C)OC(=O)[C@H](C(C)C)NC(=O)[C@H](Cc2ccc(O)cc2)N(C)C(=O)[C@H](CC(C)C)N2C(=O)[C@H](CC[C@H]2O)NC1=O (stereo partly drawn) [Rivulariapeptolide 1121, rivulariapeptolide 1121]", "measurement_unit": "RFU/s", "numeric_value": 5.471}

Shift focus to the following entry.
What value of Mean (RFU/s) has been recorded for this entry: C/C=C1\NC(=O)[C@@H](NC(=O)[C@@H](NC(=O)[C@H](C)NC(=O)CCC)[C@@H](C)O)[C@@H](C)OC(=O)[C@H](C(C)C)NC(=O)[C@H](Cc2ccc(O)cc2)N(C)C(=O)[C@H](Cc2ccccc2)N2C(=O)[C@H](CC[C@H]2O)NC1=O [Molassamide, molassamide]
4.375

====

- test_target: Proteinase K (Parengyodontium album)
- Construct: purchased Roche
- assay_name: Proteinase K inhibition, fluorogenic substrate assay (Suc-Ala-Ala-Pro-Phe-AMC)
- Format: biochemical, Tritirachium album
- test_context: Proteinase K; inhibitor concentration 0.0508053 nM; 40 min pre-incubation
Listed here are compounds together with their documented Mean (RFU/s).
Answer with a number only, understood to be in RFU/s.

Lab note: need Mean (RFU/s) for CC=C1NC(=O)[C@@H](NC(=O)[C@@H](NC(=O)[C@@H]2CCCN2C(=O)CCC)[C@@H](C)OC(=O)C2CCCN2C(=O)CCC)[C@@H](C)OC(=O)[C@H](C(C)C)NC(=O)[C@H](Cc2ccc(O)cc2)N(C)C(=O)[C@H](CC(C)C)N2C(=O)[C@H](CC[C@H]2O)NC1=O (some centres unmarked) [Rivulariapeptolide 1121, rivulariapeptolide 1121] on Proteinase K (Parengyodontium album), anyone have it?
6.561

Lab note: need Mean (RFU/s) for C/C=C1\NC(=O)[C@@H](NC(=O)[C@@H](NC(=O)[C@H](C)NC(=O)CCC)[C@@H](C)O)[C@@H](C)OC(=O)[C@H](C(C)C)NC(=O)[C@H](Cc2ccc(O)c(Br)c2)N(C)C(=O)[C@H](Cc2ccccc2)N2C(=O)[C@H](CC[C@H]2O)NC1=O [Molassamide B, molassamide B] on Proteinase K (Parengyodontium album), anyone have it?
6.3

====

- test_target: Chymotrypsin (Bos taurus)
- Construct: purchased Sigma-Aldrich
- assay_name: Chymotrypsin inhibition, fluorogenic substrate assay (Suc-Ala-Ala-Pro-Phe-AMC)
- Format: biochemical
- test_context: Chymotrypsin; inhibitor concentration 37.037 nM; 40 min pre-incubation
Listed here are compounds together with their documented Mean (RFU/s).
Please don't drop the unit; write it after the number.

# example entries with known answers
{"compound": "CCCC(=O)N1CCCC1C(=O)NC(C(=O)NC1C(=O)NC(CC(C)C)C(=O)NC2CCC(O)N(C2=O)C(Cc2ccccc2)C(=O)N(C)C(Cc2ccc(O)cc2)C(=O)NC(C(C)C)C(=O)OC1C)C(C)OC(=O)C1CCCN1C(=O)CCC (stereo not drawn) [Rivulariapeptolide 1185, rivulariapeptolide 1185]", "result": "1.084 RFU/s"}
{"compound": "CC=C1NC(=O)[C@@H](NC(=O)[C@@H](NC(=O)[C@@H]2CCCN2C(=O)CCC)[C@@H](C)OC(=O)C2CCCN2C(=O)CCC)[C@@H](C)OC(=O)[C@H](C(C)C)NC(=O)[C@H](Cc2ccc(O)cc2)N(C)C(=O)[C@H](Cc2ccccc2)N2C(=O)[C@H](CC[C@H]2O)NC1=O (stereo partly drawn) [Rivulariapeptolide 1155, rivulariapeptolide 1155]", "result": "2.874 RFU/s"}
{"compound": "CC=C1NC(=O)[C@@H](NC(=O)[C@@H](NC(=O)[C@@H]2CCCN2C(=O)CCC)[C@@H](C)OC(=O)C2CCCN2C(=O)CCC)[C@@H](C)OC(=O)[C@H](C(C)C)NC(=O)[C@H](Cc2ccc(O)cc2)N(C)C(=O)[C@H](CC(C)C)N2C(=O)[C@H](CC[C@H]2O)NC1=O (stereo partly drawn) [Rivulariapeptolide 1121, rivulariapeptolide 1121]", "result": "1.852 RFU/s"}
{"compound": "C/C=C1\\NC(=O)[C@@H](NC(=O)[C@@H](NC(=O)[C@H](C)NC(=O)CCC)[C@@H](C)O)[C@@H](C)OC(=O)[C@H](C(C)C)NC(=O)[C@H](Cc2ccc(O)cc2)N(C)C(=O)[C@H](Cc2ccccc2)N2C(=O)[C@H](CC[C@H]2O)NC1=O [Molassamide, molassamide]", "result": "4.609 RFU/s"}
{"compound": "C/C=C1\\NC(=O)[C@@H](NC(=O)[C@@H](NC(=O)[C@H](C)NC(=O)CCC)[C@@H](C)O)[C@@H](C)OC(=O)[C@H](C(C)C)NC(=O)[C@H](Cc2ccc(O)c(Br)c2)N(C)C(=O)[C@H](Cc2ccccc2)N2C(=O)[C@H](CC[C@H]2O)NC1=O [Molassamide B, molassamide B]", "result": "1.754 RFU/s"}

Shift focus to the following entry.
What value of Mean (RFU/s) has been recorded for this entry: CC=C1NC(=O)[C@@H](NC(=O)[C@@H](NC(=O)[C@@H]2CCCN2C(=O)CCC)[C@@H](C)O)[C@@H](C)OC(=O)[C@H](C(C)C)NC(=O)[C@H](Cc2ccc(O)cc2)N(C)C(=O)[C@H](Cc2ccccc2)N2C(=O)[C@H](CC[C@H]2O)NC1=O [Rivulariapeptolide 988, rivulariapeptolide 988]
3.41 RFU/s
